These entries and their values trace back to PubChem BioAssay AID686978.

TEST_NAME: qHTS for Inhibitors of human tyrosyl-DNA phosphodiesterase 1 (TDP1): qHTS in cells in absence of CPT; note: nearly all actives have a fitted effect of over 55% in size; note: potency is the fitted concentration of half-maximal effect
EXPERIMENTAL_CONTEXT: DT40 Tdp1-/- hTDP1 cells, no CPT, ATP luminescence, 48 h
The whole screen tested about 420,000 compounds, of which about 64,000 (15%) were called active. Roughly 27% stayed inconclusive and do not appear here. Not all results are given here.

[
  {
    "COMPOUND": "COc1cccc(/C=C/c2ccc3ccccc3n2)c1OC(C)=O",
    "Potency": "16.4 µM (active)"
  },
  {
    "COMPOUND": "NC(=O)Nc1ccc(C(=O)OCC(=O)NC2CCCc3ccccc32)cc1 (stereo unspecified)",
    "Potency": "inactive"
  },
  {
    "COMPOUND": "O=C(CS(=O)(=O)Cc1ccccc1)Nc1cccnc1",
    "Potency": "inactive"
  },
  {
    "COMPOUND": "COc1cccc(/C=C2\\C=C(c3ccc(C)cc3)OC2=O)c1OC(C)=O",
    "Potency": "inactive"
  },
  {
    "COMPOUND": "Brc1ccccc1/C=N/Nc1nc2ccccc2o1",
    "Potency": "inactive"
  },
  {
    "COMPOUND": "Oc1c(Br)cccc1/C=N/Nc1c(F)c(F)c(F)c(F)c1F",
    "Potency": "20.6 µM (active)"
  },
  {
    "COMPOUND": "Cc1nc(C)c2c(c1C(F)(F)F)-c1ccccc1C2(F)F",
    "Potency": "inactive"
  },
  {
    "COMPOUND": "CCC(=O)Nc1cccc(NC(=O)CSc2nnc(-c3ccc(NS(C)(=O)=O)cc3)n2C)c1",
    "Potency": "inactive"
  },
  {
    "COMPOUND": "CC(Nc1nc(C(F)(F)F)nc2ccccc12)c1cccs1 (stereo unspecified)",
    "Potency": "20.6 µM (active)"
  },
  {
    "COMPOUND": "c1csc(-c2nnc(COc3ccc4c(c3)OCO4)o2)c1",
    "Potency": "inactive"
  },
  {
    "COMPOUND": "FC(F)(F)Oc1ccc(-c2cn3cccnc3n2)cc1",
    "Potency": "inactive"
  }
]
